- assay_remarks: Cmax in cynomolgus monkey CSF at 100 mg/kg, po measured at 2 hrs
- Type: ADME, organism-based, Macaca fascicularis, Cerebrospinal fluid
- Set-up: dose 100 mg/kg, route oral
value_kind: Cmax (nM)
Number in nM, nothing else.

Endpoint output: Cmax of CN1C(=O)[C@]2(N=C1N)c1cc(-c3cccnc3F)ccc1O[C@H]1CCOC[C@@H]12 . Value?
120

----------
- assay_remarks: Ratio of unbound drug level in brain to plasma in Hartley guinea pig at 60 mg/kg, po measured at 5 hrs
- Assay type: ADME, organism-based, Cavia porcellus
- Design: dose 60 mg/kg, route oral
- condition_notes: brain and plasma (unbound), read-out: K(p,uu,brain)
Provide the reported Kp uu at 5 h of each item.
Answer with a number only.

Endpoint output: Kp uu at 5 h of CN1C(=O)[C@]2(N=C1N)c1cc(-c3cccnc3F)ccc1O[C@H]1CCOC[C@@H]12 . Value?
1.7

Endpoint output: Kp uu at 5 h of CN1C(=O)[C@]2(N=C1N)c1cc(-c3cccc(C#N)c3)ccc1O[C@H]1CCOC[C@@H]12 . Value?
0.085

----------
Provide the reported Cp(f) of each item.
- Tested on: Plasma
- assay_remarks: Unbound plasma concentration in CD-1 mouse at 3 mg/kg, iv and 10 mg/kg, po measured at 4 hrs
- Type: ADME, organism-based
- condition_notes: in vivo
Number in nM, nothing else.

Endpoint output: Cp(f) of CN1C(=O)[C@]2(N=C1N)c1cc(-c3cccnc3F)ccc1O[C@H]1CCOC[C@@]12C (racemic) . Value?
25

Endpoint output: Cp(f) of CN1C(=O)[C@]2(N=C1N)c1cc(-c3cncc(F)c3)ccc1O[C@H]1CCOC[C@@H]12 (racemic) . Value?
17

Endpoint output: Cp(f) of CN1C(=O)[C@]2(N=C1N)c1cc(-c3cccnc3F)ccc1O[C@H]1CCOC[C@@H]12 . Value?
78

Endpoint output: Cp(f) of CN1C(=O)[C@]2(N=C1N)c1cc(-c3cccnc3F)ccc1O[C@H]1CCOC[C@@H]12 (racemic) . Value?
75

Endpoint output: Cp(f) of CN1C(=O)[C@]2(N=C1N)c1cc(-c3cccc(C#N)c3)ccc1O[C@H]1CCOC[C@@H]12 (racemic) . Value?
170

Endpoint output: Cp(f) of C[C@]12CCOC[C@@H]1[C@]1(COC(N)=N1)c1cc(-c3cc(F)cc(Cl)c3)ccc1O2 . Value?
3.7

Endpoint output: Cp(f) of CN1C(=O)[C@]2(N=C1N)c1cc(-c3cc(F)cc(Cl)c3)ccc1O[C@H]1CCOC[C@@H]12 (racemic) . Value?
17

Endpoint output: Cp(f) of C[C@]12CCOC[C@@H]1[C@]1(COC(N)=N1)c1cc(-c3cncc(Cl)c3)ccc1O2 (racemic) . Value?
120

Endpoint output: Cp(f) of C[C@H]1OCC[C@H]2Oc3ccc(-c4cccnc4F)cc3[C@]3(N=C(N)N(C)C3=O)[C@H]12 (racemic) . Value?
63

Endpoint output: Cp(f) of CN1C(=O)[C@]2(N=C1N)c1cc(-c3cncc(Cl)c3)ccc1O[C@H]1CCOC[C@@H]12 (racemic) . Value?
7.5

----------
- assay_remarks: Drug uptake in Sprague-Dawley rat CSF at 60 mg/kg, po measured at 12 hrs
- Format: ADME, organism-based, Cerebrospinal fluid
- Parameters: dose 60 mg/kg, route oral
- condition_notes: read-out: Drug uptake
value_kind: concentration at 12 h
Write your answer as a measured quantity: the number, then the unit.

Endpoint output: concentration at 12 h of CN1C(=O)[C@]2(N=C1N)c1cc(-c3cccnc3F)ccc1O[C@H]1CCOC[C@@H]12 . Value?
85 nM

----------
- assay_remarks: Oral bioavailability in CD-1 mouse at 10 mg/kg
- Format: ADME, organism-based
- condition_notes: in vivo
value_kind: bioavailability (%)
Number in %, nothing else.

Endpoint output: bioavailability of CN1C(=O)[C@]2(N=C1N)c1cc(-c3cncc(F)c3)ccc1O[C@H]1CCOC[C@@H]12 (racemic) . Value?
38

Endpoint output: bioavailability of C[C@]12CCOC[C@@H]1[C@]1(COC(N)=N1)c1cc(-c3cc(F)cc(Cl)c3)ccc1O2 . Value?
43

Endpoint output: bioavailability of CN1C(=O)[C@]2(N=C1N)c1cc(-c3cccc(C#N)c3)ccc1O[C@H]1CCOC[C@@H]12 (racemic) . Value?
103

Endpoint output: bioavailability of C[C@H]1OCC[C@H]2Oc3ccc(-c4cccnc4F)cc3[C@]3(N=C(N)N(C)C3=O)[C@H]12 (racemic) . Value?
75

Endpoint output: bioavailability of CN1C(=O)[C@]2(N=C1N)c1cc(-c3cncc(Cl)c3)ccc1O[C@H]1CCOC[C@@H]12 (racemic) . Value?
19

Endpoint output: bioavailability of CN1C(=O)[C@]2(N=C1N)c1cc(-c3cccnc3F)ccc1O[C@H]1CCOC[C@@]12C (racemic) . Value?
15

Endpoint output: bioavailability of C[C@]12CCOC[C@@H]1[C@]1(COC(N)=N1)c1cc(-c3cncc(Cl)c3)ccc1O2 (racemic) . Value?
76

Endpoint output: bioavailability of CN1C(=O)[C@]2(N=C1N)c1cc(-c3cc(F)cc(Cl)c3)ccc1O[C@H]1CCOC[C@@H]12 (racemic) . Value?
67

----------
Provide the reported CLhep predicted at 1 µM of each item.
- assay_remarks: Clearance in CD-1 mouse liver microsomes at 1 uM after 20 mins by LC-MS/MS analysis in presence of NADPH
- Type: ADME, Microsome

Endpoint output: CLhep predicted at 1 µM of C[C@]12CCOC[C@@H]1[C@]1(COC(N)=N1)c1cc(-c3cccnc3F)c(F)cc1O2 (racemic) . Value?
84 mL/min/kg

Endpoint output: CLhep predicted at 1 µM of C[C@]12CCOC[C@@H]1[C@]1(COC(N)=N1)c1cc(-c3cccnc3F)ccc1O2 (racemic) . Value?
61 mL/min/kg

Endpoint output: CLhep predicted at 1 µM of C[C@]12CCOC[C@@H]1[C@]1(COC(N)=N1)c1cc(-c3cncc(Cl)c3)c(F)cc1O2 (racemic) . Value?
65 mL/min/kg

Endpoint output: CLhep predicted at 1 µM of CN1C(=O)[C@]2(N=C1N)c1cc(-c3cccnc3F)ccc1O[C@H]1CCOC[C@@]12C (racemic) . Value?
55 mL/min/kg

Endpoint output: CLhep predicted at 1 µM of CN1C(=O)[C@]2(N=C1N)c1cc(-c3cncc(Cl)c3)ccc1O[C@H]1CCOC[C@@H]12 (racemic) . Value?
54 mL/min/kg

Endpoint output: CLhep predicted at 1 µM of C[C@]12CCOC[C@@H]1[C@]1(COC(N)=N1)c1cc(-c3cncc(Cl)c3)ccc1O2 (racemic) . Value?
60 mL/min/kg

----------
- assay_remarks: Drug uptake in Sprague-Dawley rat CSF at 60 mg/kg, po measured at 3 hrs
- Type: ADME, organism-based, Cerebrospinal fluid
- Parameters: dose 60 mg/kg, route oral
- condition_notes: read-out: Drug uptake
value_kind: concentration at 3 h (nM)
Number in nM, nothing else.

Endpoint output: concentration at 3 h of CN1C(=O)[C@]2(N=C1N)c1cc(-c3cccnc3F)ccc1O[C@H]1CCOC[C@@H]12 . Value?
150

----------
- Test system: Brain
- assay_remarks: Fraction unbound in CD-1 mouse brain at 10 mg/kg, po measured at 1 hr
- Format: ADME, organism-based
- Set-up: dose 10 mg/kg, route oral
- condition_notes: in vivo
Please note: Y applies when Drug uptake(free) is 7 nM or greater, and N applies otherwise.

Textbook exercise: given the entry C[C@]12CCOC[C@@H]1[C@]1(COC(N)=N1)c1cc(-c3cncc(Cl)c3)ccc1O2 (racemic) , state whether its Drug uptake(free) is greater than or equal to 7 nM.
Y

Textbook exercise: given the entry CN1C(=O)[C@]2(N=C1N)c1cc(-c3cncc(F)c3)ccc1O[C@H]1CCOC[C@@H]12 (racemic) , state whether its Drug uptake(free) is greater than or equal to 7 nM.
N

Textbook exercise: given the entry CN1C(=O)[C@]2(N=C1N)c1cc(-c3cccnc3F)ccc1O[C@H]1CCOC[C@@]12C (racemic) , state whether its Drug uptake(free) is greater than or equal to 7 nM.
N

Textbook exercise: given the entry CN1C(=O)[C@]2(N=C1N)c1cc(-c3cccc(C#N)c3)ccc1O[C@H]1CCOC[C@@H]12 (racemic) , state whether its Drug uptake(free) is greater than or equal to 7 nM.
N

Textbook exercise: given the entry CN1C(=O)[C@]2(N=C1N)c1cc(-c3cc(F)cc(Cl)c3)ccc1O[C@H]1CCOC[C@@H]12 (racemic) , state whether its Drug uptake(free) is greater than or equal to 7 nM.
N

Textbook exercise: given the entry CN1C(=O)[C@]2(N=C1N)c1cc(-c3cccnc3F)ccc1O[C@H]1CCOC[C@@H]12 , state whether its Drug uptake(free) is greater than or equal to 7 nM.
Y

Textbook exercise: given the entry CN1C(=O)[C@]2(N=C1N)c1cc(-c3cncc(Cl)c3)ccc1O[C@H]1CCOC[C@@H]12 (racemic) , state whether its Drug uptake(free) is greater than or equal to 7 nM.
N

Textbook exercise: given the entry CN1C(=O)[C@]2(N=C1N)c1cc(-c3cccnc3F)ccc1O[C@H]1CCOC[C@@H]12 (racemic) , state whether its Drug uptake(free) is greater than or equal to 7 nM.
Y
